System: Echinochloa crus-galli (ECHCG)
Experiment: Post-emergence herbicidal action against ECHCG
Type: in vivo
Details: dosage 80 g/ha
# key: entry, value: Post-emergence action against ECHCG in %
The answer is to be given in %; state only the numeric part.

compound	reported measurement
CCOC(=O)COc1nn(-c2ccccn2)c(-c2ccc(F)nc2)c1Br	100

IN: Look at this compound and give its reported Post-emergence action against ECHCG in %. CCOC(=O)COc1nn(-c2ccccn2)c(-c2ccc(F)nc2)c1F
OUT: 90

IN: Look at this compound and give its reported Post-emergence action against ECHCG in %. O=C(O)COc1nn(-c2nc(F)ccc2F)c(-c2ccc(F)nc2)c1Br
OUT: 80

IN: Look at this compound and give its reported Post-emergence action against ECHCG in %. CCOC(=O)COc1nn(-c2nc(F)ccc2F)c(-c2ccc(F)nc2)c1C1CC1
OUT: 90

IN: Look at this compound and give its reported Post-emergence action against ECHCG in %. COCCOC(=O)COc1nn(-c2ncccc2F)c(-c2ccc(F)nc2)c1C1CC1
OUT: 90

IN: Look at this compound and give its reported Post-emergence action against ECHCG in %. COC(=O)CCOC(=O)COc1nn(-c2ccccn2)c(-c2cncc(F)c2)c1Br
OUT: 90

IN: Look at this compound and give its reported Post-emergence action against ECHCG in %. COC(=O)[C@@H](C)NC(=O)COc1nn(-c2ccccn2)c(-c2ccnc(F)c2)c1Br
OUT: 80

IN: Look at this compound and give its reported Post-emergence action against ECHCG in %. COC(=O)CCOC(=O)COc1nn(-c2ccccn2)c(-c2ccc(F)nc2)c1Br [Example I-247]
OUT: 80

* * *

Test system: Amaranthus retroflexus (AMARE)
Assay: Pre-emergence herbicidal action against AMARE
Assay type: in vivo
Conditions: 320 g/ha, visual scoring after about 3 weeks vs untreated controls
# key: entry, value: Pre-emergence action against AMARE in %
Respond with the figure and its unit, in that order.

molecule	target or system	Pre-emergence action against AMARE in %
COC(=O)C=CC(C)NC(=O)COc1nn(-c2ccccn2)c(-c2ccc(F)nc2)c1Br (stereo not shown) [Example I-297]	Amaranthus retroflexus (AMARE)	80%
C[C@@H](Oc1nn(-c2ccc(F)cn2)c(-c2cncc(F)c2)c1Br)C(=O)O [Example I-13]	Amaranthus retroflexus (AMARE)	100%
C[C@@H](Oc1nn(-c2ncccc2Cl)c(-c2ccc(F)nc2)c1Br)C(=O)O [Example I-25]	Amaranthus retroflexus (AMARE)	100%

Now consider the entry below.
IN: Look at this molecule and give its reported Pre-emergence action against AMARE in %. CCOC(=O)[C@@H](C)Oc1nn(-c2ncccc2F)c(-c2ccc(F)nc2)c1C1CC1 [Example I-375]
OUT: 100%

* * *

# key: entry, value: Post-emergence action against ORYSA in %
System: Oryza sativa (ORYSA)
Type: in vivo
Details: crop plant compatibility, 20 g/ha, effect vs untreated controls
The answer is to be given in %; state only the numeric part.

molecule	target or system	Post-emergence action against ORYSA in % [%]
O=C(O)CNC(=O)COc1nn(-c2ccccn2)c(-c2ccc(F)nc2)c1Cl [Example I-118]	Oryza sativa (ORYSA)	0
C[C@@H](Oc1nn(-c2ncccc2Cl)c(-c2ccc(F)nc2)c1Br)C(=O)O [Example I-25]	Oryza sativa (ORYSA)	0

IN: Look at this molecule and give its reported Post-emergence action against ORYSA in %. COC(=O)CNC(=O)COc1nn(-c2ccccn2)c(-c2ccc(F)nc2)c1Br [Example I-97]
OUT: 0

IN: Look at this molecule and give its reported Post-emergence action against ORYSA in %. CCOC(=O)COc1nn(-c2ncccc2F)c(-c2cncc(F)c2)c1C(F)(F)F [Example I-141]
OUT: 10

* * *

System: Echinochloa crus-galli (ECHCG)
Assay: Pre-emergence herbicidal action against ECHCG
Assay type: in vivo
Settings: dosage 80 g/ha
# key: entry, value: Pre-emergence action against ECHCG in %
Respond with the figure and its unit, in that order.

Record excerpt, results attached:
compound	Pre-emergence action against ECHCG in %
COC(=O)[C@H](C)COC(=O)COc1nn(-c2ccccn2)c(-c2cncc(F)c2)c1Cl [Example I-192]	90%
C[C@@H](Oc1nn(-c2nc(F)ccc2F)c(-c2cncc(F)c2)c1Cl)C(=O)O [Example I-159]	90%
CCOC(=O)COc1nn(-c2nc(F)ccc2F)c(-c2ccc(F)nc2)c1Cl [Example I-315]	90%
COCCOC(=O)COc1nn(-c2ccccn2)c(-c2ccc(F)nc2)c1Br [Example I-96]	80%
COC(=O)COc1nn(-c2ncccc2F)c(-c2cncc(F)c2)c1C1CC1 [Example I-167]	100%

IN: Look at this compound and give its reported Pre-emergence action against ECHCG in %. CCOC(=O)[C@@H](C)Oc1nn(-c2nc(F)ccc2F)c(-c2ccc(F)nc2)c1Br [Example I-336]
OUT: 80%

IN: Look at this compound and give its reported Pre-emergence action against ECHCG in %. O=C(O)COc1nn(-c2ncccc2F)c(-c2cncc(F)c2)c1C1CC1 [Example I-175]
OUT: 100%

IN: Look at this compound and give its reported Pre-emergence action against ECHCG in %. COC(=O)[C@@H](C)Oc1nn(-c2ccccn2)c(-c2cncc(F)c2)c1Cl [Example I-189]
OUT: 90%

IN: Look at this compound and give its reported Pre-emergence action against ECHCG in %. COC(=O)COc1nn(-c2nc(F)ccc2F)c(-c2cncc(F)c2)c1C1CC1 [Example I-164]
OUT: 90%

IN: Look at this compound and give its reported Pre-emergence action against ECHCG in %. CCOC(=O)COc1nn(-c2ccccn2)c(-c2ccc(F)nc2)c1Cl [Example I-100]
OUT: 80%

IN: Look at this compound and give its reported Pre-emergence action against ECHCG in %. CCOC(=O)COc1nn(-c2ccccn2)c(-c2ccc(F)nc2)c1Br [Example I-86]
OUT: 100%

IN: Look at this compound and give its reported Pre-emergence action against ECHCG in %. CCOC(=O)[C@@H](C)Oc1nn(-c2nc(F)ccc2F)c(-c2cncc(F)c2)c1Br [Example I-388]
OUT: 80%

IN: Look at this compound and give its reported Pre-emergence action against ECHCG in %. O=C(O)COc1nn(-c2nc(F)ccc2F)c(-c2cncc(F)c2)c1Br [Example I-207]
OUT: 90%

IN: Look at this compound and give its reported Pre-emergence action against ECHCG in %. COC(=O)COc1nn(-c2nc(F)ccc2F)c(-c2cncc(F)c2)c1Br [Example I-210]
OUT: 90%

IN: Look at this compound and give its reported Pre-emergence action against ECHCG in %. CS(=O)(=O)NC(=O)COc1nn(-c2ncccc2F)c(-c2ccc(F)nc2)c1Br [Example I-44]
OUT: 80%

IN: Look at this compound and give its reported Pre-emergence action against ECHCG in %. C[C@@H](Oc1nn(-c2nc(F)ccc2F)c(-c2cncc(F)c2)c1C1CC1)C(=O)O [Example I-180]
OUT: 100%

IN: Look at this compound and give its reported Pre-emergence action against ECHCG in %. COC(=O)CCOC(=O)[C@@H](C)Oc1nn(-c2ccccn2)c(-c2cncc(F)c2)c1Cl [Example I-196]
OUT: 90%

* * *

Tested on: Pharbitis purpurea (PHBPU)
Experiment: Pre-emergence herbicidal action against PHBPU
Format: in vivo
Conditions: dosage 80 g/ha
# key: entry, value: Pre-emergence action against PHBPU in %
The answer is to be given in %; state only the numeric part.

molecule	target or system	measure unit	Pre-emergence action against PHBPU in %
COC(=O)[C@@H](C)Oc1nn(-c2nc(F)ccc2F)c(-c2cncc(F)c2)c1Cl [Example I-154]	Pharbitis purpurea (PHBPU)	%	80
CCOC(=O)COc1nn(-c2ncccc2C)c(-c2ccc(F)nc2)c1Br [Example I-321]	Pharbitis purpurea (PHBPU)	%	80

IN: Look at this molecule and give its reported Pre-emergence action against PHBPU in %. COC(=O)CNC(=O)[C@@H](C)Oc1nn(-c2ccccn2)c(-c2cncc(F)c2)c1Br [Example I-187]
OUT: 90

* * *

Test system: Matricaria inodora (MATIN)
Assay: Post-emergence herbicidal action against MATIN
Type: in vivo
Details: dosage 320 g/ha
metric: Post-emergence action against MATIN in % (%)
The answer is to be given in %; state only the numeric part.

Record excerpt, results attached:
molecule	Post-emergence action against MATIN in % [%]
CCOC(=O)COc1nn(-c2ccccn2)c(-c2ccc(Cl)nc2)c1Cl [Example I-241]	80
CCOC(=O)COc1nn(-c2ncccc2C)c(-c2cncc(F)c2)c1Cl [Example I-181]	80
CC(C)=NOC(=O)COc1nn(-c2ncccc2F)c(-c2ccc(F)nc2)c1C1CC1 [Example I-366]	80
C[C@@H](Oc1nn(-c2ncccc2F)c(-c2ccc(F)nc2)c1Br)C(=O)O [Example I-18]	80
COC(=O)CCOC(=O)COc1nn(-c2ccccn2)c(-c2ccc(Cl)nc2)c1Cl [Example I-243]	80

Now consider the entry below.
IN: Look at this molecule and give its reported Post-emergence action against MATIN in %. COC(=O)CCOC(=O)COc1nn(-c2cccc(C)n2)c(-c2ccc(F)nc2)c1Cl [Example I-276]
OUT: 80
